# Assay method text: Half-life of DK as a function of pH
# Type: physicochemical
# Experimental parameters: buffer; pH 5, 35° C.

>  <Compound>
C=CC(=O)NCCOC(C)(C)OCCNC(=O)C=C [DK]

>  <half-life [min]>
43.2

$$$$

* * *

# Assay method text: Half-life of DK as a function of pH
# Format: physicochemical
# Experimental parameters: buffer; pH 7.4, 35° C.

>  <Compound smiles>
C=CC(=O)NCCOC(C)(C)OCCNC(=O)C=C

>  <Scale unit>
h

>  <half-life>
144

$$$$

* * *

# Assay method text: Dissolution (decrosslinking) kinetics of labile crosslinkers under the dissolution treatment (applied stimulus)
# Format: physicochemical
# Experimental parameters: under the dissolution treatment listed per crosslinker (periodic acid, reducing agent, base or acid)
# Text: Certain properties of labile crosslinkers are described in the table below.

>  <Compound>
C=CC(=O)NCCOC(C)(C)OCCNC(=O)C=C

>  <Dissolution Kinetics>
Minutes

$$$$
>  <Compound>
C=CC(=O)NC(O)C(O)NC(=O)C=C (stereo not drawn)

>  <Dissolution Kinetics>
Hours

$$$$
>  <Compound>
C=CCNC(=O)C(O)C(O)C(=O)NCC=C (stereo not drawn) [DATD, N—N′-diallyltartardiamide]

>  <Dissolution Kinetics>
Hours

$$$$
>  <Compound>
C=CC(=O)NCCOCCOC(C)(C)OCCOCCNC(=O)C=C

>  <Dissolution Kinetics>
Minutes

$$$$
>  <Compound>
C=CC(=O)NCCSSCCNC(=O)C=C

>  <Dissolution Kinetics>
Minutes

$$$$
>  <Compound>
C=CC(=O)OCCOC(=O)C=C [EDA, ethylene glycol diacrylate]

>  <Dissolution Kinetics>
Minutes

$$$$
